Would you kindly list activity change for each of these compounds?
# protocol details: qHTS for Inhibitors of Inflammasome Signaling: IL-1-beta AlphaLISA Primary Screen; note: % is set by controls: 0 for no effect and ±100 for the full control effect
# condition notes: THP-1 LPS/ATP IL-1B secretion, 16 h; at 57.5 µM, hits give low values
The campaign covered roughly 360,000 compounds. About 17,000 (4.7%) were called active. Roughly 5% stayed inconclusive and do not appear here. This excerpt belongs to a sample that is enriched for actives.
Please give a number only; it is taken to be in %.

### Prompt Recorded activity change of "O=C(COC(=O)c1cc(-c2cccs2)nn1-c1ccccc1)Nc1cc([N+](=O)[O-])ccc1Cl" , please.
### Response 21.3

### Prompt # query: activity change of entry "CN(CC(=O)Nc1cccc(F)c1)C(=O)CC1CCCC1"
### Response 0.0851

### Prompt Any idea what activity change was measured for "CNc1ccc(SC#N)cc1" ?
### Response -70.1

### Prompt Query (compound): "O=C(c1ccc(N2CCOCC2)c([N+](=O)[O-])c1)N1CCN(S(=O)(=O)c2cccs2)CC1" ; field requested: activity change
### Response -0.922

### Prompt Need activity change of "Cc1ccccc1NC(=O)Cc1nc(COC(=O)C(C)(C)Oc2ccc(Cl)cc2)cs1" , thanks.
### Response 17

---

# protocol details: qHTS for Inhibitors of Inflammasome Signaling: IL-1-beta AlphaLISA Primary Screen
# condition notes: THP-1 LPS/ATP IL-1B secretion, 16 h; at 57.5 µM
Screen size: about 360,000 compounds; about 17,000 (4.7%) were called active. Roughly 5% stayed inconclusive and do not appear here. Rule as the data show it: active = activity change below about -50%; inconclusive = mostly about -30% to -49%; inactive = weaker than that. The sample holds actives, similar compounds and a random draw of the others, so the mix is not that of the screen.
In this exercise, the only acceptable responses are 1.0 = active, 0.0 = inactive

### Prompt Could you kindly confirm the outcome this assay logged for "COCCNC(=O)COc1ccc(N(C)S(=O)(=O)c2ccc3ccccc3c2)cc1" ?
### Response 0.0

### Prompt Record request — test call for CCOC(=O)C1C(=O)C=C(c2ccc(OC)cc2)CC1c1ccco1 (stereo unspecified)
### Response 1.0

### Prompt Could you please tell me the result logged for "O=C(c1ccc(Cl)c([N+](=O)[O-])c1)N1CCN(c2ccccc2)CC1" in this assay?
### Response 0.0

### Prompt Please share the test call associated with "Cc1ccc(S(=O)(=O)N[C@H](CO)C(C)C)cc1" .
### Response 0.0

### Prompt Per the assay record, what outcome was assigned to "CC(=O)NN=C(C)c1ccc(NC(=O)C2CC2)cc1" ?
### Response 0.0

### Prompt // return assay outcome for COc1ccc(C2=NN(C(=O)CSc3nnnn3C)C(c3ccco3)C2)cc1 (stereo unspecified)
### Response 0.0

### Prompt Which result was noted for this compound in the test: CC(Nc1nc(C(F)(F)F)nc2ccccc12)c1cccs1 (stereo unspecified)
### Response 1.0

### Prompt Short answer needed: outcome of this test for "COc1ccc(CNC(=O)C2CCN(S(C)(=O)=O)CC2)cc1" ?
### Response 0.0

### Prompt Fill in: this test's call for "Cc1cc(C)n(-c2nc(C(F)(F)F)nc3ccccc23)n1" is ___
### Response 0.0

### Prompt Record request — test call for "CCOC(=O)[C@@H]1[C@H]2COc3ccc(Br)cc3[C@H]2N2C(=O)N(c3ccc(Cl)cc3)C(=O)[C@@]12C"
### Response 0.0

### Prompt Recorded test call requested for "CCc1ccc(C(=O)N2CCN(S(=O)(=O)c3sc(C(=O)O)c(C)c3C(=O)O)CC2)cc1"
### Response 0.0

### Prompt Hi, sorry to bother you, what did the test record for "C=CCN(N=Nc1cccc([N+](=O)[O-])c1)c1cccc([N+](=O)[O-])c1" ?
### Response 0.0

### Prompt Give the logged outcome of this assay for the following compound: "CC(C)(C)Nc1nc(-c2ccccn2)nc2ccccc12"
### Response 0.0

### Prompt Hey, what did the test say about "O=C(/C=C/c1ccc(Cl)cc1)N1CCN(c2ccccc2[N+](=O)[O-])CC1" ?
### Response 1.0

### Prompt // return assay outcome for "CO/N=C/c1ccc(N2CCN(C(=O)c3cccc(Cl)c3)CC2)c([N+](=O)[O-])c1"
### Response 0.0

### Prompt Which outcome was entered for the compound CCOC(=O)C1C(=O)NC(N2CCN(c3ccccc3)CC2)=NC1c1ccco1 (stereo unspecified) in this test?
### Response 0.0

### Prompt Any idea what this test logged for N#CC1=C(N)Oc2cc(O)ccc2C1C1CCCCC1 (stereo unspecified) ?
### Response 0.0

### Prompt What call does the record list for "CCN1CCN(C(=O)CN(C)S(=O)(=O)c2ccc3ccccc3c2)CC1" ?
### Response 0.0

### Prompt Hi, sorry to bother you, what did the test record for CC(C)(C)OC(=O)NC(Cc1ccccc1)C(=O)NC(CSC1CCCCO1)C(=O)NN (stereo unspecified) ?
### Response 0.0

### Prompt Please let me know the test result on file for "CC(=O)c1cccc(-c2cnc3c(NC=O)cc(-c4ccc(N5CCN(C)CC5)cc4)cn23)c1" .
### Response 0.0

### Prompt # lookup: test call for "CCCCNC(=O)c1nc(C2CCN(S(=O)(=O)c3ccc(F)c(F)c3)CC2)oc1-c1cccc(C(F)(F)F)c1"
### Response 0.0

---

# protocol details: qHTS for Inhibitors of Inflammasome Signaling: IL-1-beta AlphaLISA Primary Screen
# condition notes: THP-1 LPS/ATP IL-1B secretion, 16 h; at 57.5 µM, hits give low values
Out of some 360,000 compounds screened, about 17,000 (4.7%) were called active. Inconclusive results (about 5%) are left out. The entries come from a sample that favours actives as a whole.
measure name: activity change (%)
The answer is to be given in %; state only the numeric part.

### Prompt GET /values?readout=activity change&item= OC(c1ccccc1)c1nc(-c2cnc3ccccc3c2)cs1 (stereo unspecified)
### Response 32.8

### Prompt Endpoint output: activity change of "C[C@H]1CN([C@@H](C)CO)C(=O)CCCn2nncc2CO[C@@H]1CN(C)Cc1ccc(Oc2ccccc2)cc1" . Value?
### Response 8.16

### Prompt Please report the recorded activity change for "Cc1ccccc1NC(=O)CSC(=O)c1ccccc1" .
### Response 22.2

### Prompt I am curious: what activity change value has been reported for "COc1ccccc1NC(=O)Nc1nc(CC(=O)Nc2ccccc2F)cs1" ?
### Response -1.21

### Prompt Reported activity change for "COc1ccc(-c2cc(NC(C)=O)c3ncc(-c4cc(OC)c(OC)c(OC)c4)n3c2)cn1" : what is it?
### Response 41.4

### Prompt State the recorded activity change for this entry: CCn1cc(C(=O)NCC2CCCO2)c(=O)c2cc(S(=O)(=O)N3CCCCC3)ccc21 (stereo unspecified)
### Response -22.1

---

# protocol details: qHTS for Inhibitors of Inflammasome Signaling: IL-1-beta AlphaLISA Primary Screen
# condition notes: THP-1 LPS/ATP IL-1B secretion, 16 h; at 57.5 µM, hits give low values
In all, about 360,000 compounds went through this assay and about 17,000 (4.7%) were called active. About 5% were inconclusive and are not listed. Only a selection was taken, and actives are over-represented in it overall.
measure name: activity change

### Prompt Report activity change for "CCc1nc2c(OCCc3cccc(OC)c3)cccn2c1N(C)C(=O)c1ccc(C)cc1" please.
### Response -7.64% (inactive)

### Prompt Please give the measured activity change for this molecule: "COCCNC(=O)/C(C#N)=C/c1nc(N(C)C)n(-c2ccc(F)cc2)c1Cl"
### Response -69.9% (active)

### Prompt Entry "O=C(Nc1cc(Br)ccc1F)c1nc[nH]c1C(=O)NCc1ccccc1" has what activity change?
### Response -4.71% (inactive)

### Prompt Bench note: what activity change did "COc1ccc(N)c(C)c1" show?
### Response -25.8% (inactive)

### Prompt Return reported activity change; argument: CCCCn1nnnc1C1(C)CCC(=O)N1Cc1ccc(OC)c(OC)c1 (configuration not stated)
### Response 0% (inactive)

### Prompt Bench note: what activity change did Cc1cccc(C(=O)C(O)(c2ccccc2)C2CCCCC2=O)c1 (configuration not stated) show?
### Response 16.6% (inactive)

### Prompt Consider the molecule "CC(C)(C)OC(=O)N1CCC(C(=O)Nc2cccc(C(=O)NCCc3ccccc3)c2)CC1" and give its measured activity change.
### Response 17.9% (inactive)

### Prompt Please report the recorded activity change for COc1ccc(OC)c(CN2C(=O)CCC2(C)c2nnnn2Cc2ccccc2)c1 (configuration not stated) .
### Response 0% (inactive)

### Prompt What activity change value was documented for this molecule, CCCS(=O)(=O)NC(=O)C1(C)CCCN(C(=O)c2cccs2)C1 (configuration not stated) ?
### Response 1.15% (inactive)

### Prompt Look up activity change for this molecule: CC1CCCCN1CCCNC(=O)Cn1ncc2c([nH]c3ccccc32)c1=O (configuration not stated)
### Response 14.3% (inactive)

### Prompt Can you look up the measured activity change of CCCNC(=O)C1(C)CCN1C(=O)C1(c2ccccc2)CC1 (configuration not stated) for me?
### Response 0% (inactive)

### Prompt Item under review: "C[C@@H]1CN([C@@H](C)CO)C(=O)CCCn2nncc2CO[C@H]1CN(C)Cc1ccc(C(F)(F)F)cc1" . Reported activity change?
### Response 14.2% (inactive)

### Prompt Need activity change, item "Cc1[nH]c2ccccc2c1C(=O)COC(=O)c1c(-c2ccccc2)noc1C"
### Response -59.9% (active)

### Prompt State the recorded activity change for this entry: "Cc1[nH]c2ccccc2c1C(=O)CSCC(=O)O"
### Response 10.6% (inactive)

### Prompt Form field: reported activity change of COc1ccc(CC(=O)NC(C)c2ccc(Cl)c(Cl)c2)cc1S(=O)(=O)N1CCOCC1 (configuration not stated)
### Response -9.07% (inactive)

### Prompt Bench note: what activity change did O=C(Nc1ccc(Cl)cc1)C1Cc2c(-c3ccc4c(c3)OCO4)ccnc2O1 (configuration not stated) show?
### Response -19.5% (inactive)

### Prompt Which measured activity change value corresponds to O=C1C2C3C=CC(C3)C2C(=O)N1c1ncc([N+](=O)[O-])s1 (configuration not stated) ?
### Response 6.51% (inactive)

### Prompt Which activity change is listed for CCN(CC)C(=O)[C@H]1CC(CC(=O)NCc2ccco2)C(=O)N2CCc3c([nH]c4ccccc34)[C@]12C (some centres not stated) ?
### Response 7.15% (inactive)

### Prompt What value of activity change has been recorded for this entry: "COCCNC(=O)/C(C#N)=C/c1cccc(OCc2ccccc2)c1"
### Response -8.24% (inactive)

### Prompt // returns reported activity change for input "CC(C)Nc1nc(NCCOc2ccccc2Cl)c2sccc2n1"
### Response -90.6% (active)

### Prompt Look up activity change for this molecule: "COCCCNC(=O)/C(C#N)=C/c1c(N2CCCCCC2)nc2ccccn2c1=O"
### Response -20.1% (inactive)
